src = PubChem BioAssay (EPA / NIEHS)

Assay: ATG_GATA_CIS: Attagene CIS-FACTORIAL HepG2 Assay for human GATA Binding Protein (AID 2282944)
Settings: HepG2 GATA cis-element reporter, Attagene multiplex mRNA; actives raise or lower the signal
Activity calls are given as the source filed them. Rule for the calls: active = hit-call score of the fitted dose curve at least 0.9, where 1 is the maximum; inactive = score below 0.9.
value kind: outcome

>>> recorded_value("CCCCCCC(C)O (configuration not stated)")
"inactive"
>>> recorded_value("CN(C)c1ccc(C=O)cc1")
"inactive"
>>> recorded_value("CC(=O)CCC(=O)O")
"inactive"
>>> recorded_value("CCn1cc(C(=O)O)c(=O)c2ccc(C)nc21")
"inactive"
>>> recorded_value("CCOC(=O)CC1(C)OCC(C)O1 (configuration not stated)")
"inactive"
>>> recorded_value("O=C(O)c1ccco1")
"inactive"

Note to self: outcome recorded for CC(=O)c1ccc2ccccc2c1 was inactive

Note to self: outcome recorded for CCCCOC(=O)C(C)OC(=O)CCC (configuration not stated) was inactive

Note to self: outcome recorded for CC(C)CCCC(C)(C)O was inactive

Note to self: outcome recorded for CC(C)Cc1ccccc1 was inactive

Note to self: outcome recorded for CC1=CCC(=C(C)C)CC1 was inactive

Note to self: outcome recorded for Nc1ccc(N)c([N+](=O)[O-])c1 was inactive

Note to self: outcome recorded for CC(C)N(c1ccccc1)C(C)C was inactive

Note to self: outcome recorded for CCCCCCCCCC(=O)OCC was inactive

Note to self: outcome recorded for CCCCOCCOC(=O)c1ccccc1C(=O)OCCOCCCC was inactive

----------
Test: CCTE_Deisenroth_AIME_384WELL_CTox_Inactive: Cytotoxicity Assessment (CTOX) in CCTE's 384-well Estrogen Receptor Transactivation Assay without AIME metabolic competence (metabolism negative), Deisenroth Lab (AID 2284039);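 note: cell viability via live-cell protease substrate cleaved to fluorescent probe; cells exposed 24 h to medium preincubated 2 h with alginate-water beads without S9; loss of fluorescence signal means loss of viability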
Records with an inconclusive call do not appear. Activity calls are given as the source filed them. Rule for the calls: active = hit-call score of the fitted dose curve at least 0.9, where 1 is the maximum; inconclusive = response in the unintended direction; inactive = score below 0.9.
Please reply with one of these outcomes: active, inactive

Examples from the recorded data:
>>> cat("C=CC(C)CCCC(C)(C)O (stereo not given)")
"inactive"
>>> cat("CN(C)C(=O)Nc1ccccc1")
"inactive"
>>> cat("CC(C)C(=O)c1ccccc1")
"inactive"
>>> cat("CC(=O)OC/C=C(C)/C=C/C=C(C)/C=C/C1=C(C)CCCC1(C)C")
"inactive"
>>> cat("C#C[C@]1(O)CC[C@H]2[C@@H]3CCc4cc(O)ccc4[C@H]3CC[C@@]21C")
"active"

Prompt: State the result this test recorded for NC(N)=S .
Completion: inactive

Prompt: State the result this test recorded for OC[C@H]1O[C@@H](O[C@H]2[C@H](O)[C@@H](O)[C@H](O)O[C@@H]2CO)[C@H](O)[C@@H](O)[C@H]1O .
Completion: inactive

Prompt: State the result this test recorded for CCCC[N+](C)(CCCC)CCCC .
Completion: inactive

Prompt: State the result this test recorded for CC(C)N(c1ccccc1)C(C)C .
Completion: inactive

Prompt: State the result this test recorded for CC(=O)CC(=O)N(C)C .
Completion: inactive

----------
Test: ATG_GLI_CIS: Attagene CIS-FACTORIAL HepG2 Assay for human Zinc Finger Protein GLI1 (AID 2282945)
Details: HepG2, Attagene cis-factorial reporter mRNA, GLI element; actives raise or lower the signal
The source made the active and inactive calls. How the source made its calls: active means hit-call score of the fitted dose curve at least 0.9, where 1 is the maximum; inactive means score below 0.9.
Please reply with one of these outcomes: label 1 = active, label 0 = inactive

>>> cat("CCCCOCCOCCO")
"label 0"
>>> cat("CC(O)CNCC(C)O (stereo not given)")
"label 0"
>>> cat("FC(F)(F)c1ccc(Cl)c(Cl)c1")
"label 0"

Prompt: State the result this test recorded for CC/C(=C(\c1ccccc1)c1ccc(OCCN(C)C)cc1)c1ccccc1 .
Completion: label 0

Prompt: State the result this test recorded for C=CC(O)CCCCC (stereo not given) .
Completion: label 0

Prompt: State the result this test recorded for OC[C@@H](O)[C@H](O)[C@@H](O)[C@@H](O)CO .
Completion: label 0
